assay: Oral bioavailability in rat
Assay type: ADME, organism-based
test.parameters: in vivo
attribute.measured: bioavailability (%)

[A] CCc1ccnc(C(CC(=O)N2CCC(N3Cc4ccccc4NC3=O)CC2)Cc2cc(C)c3[nH]ncc3c2)c1 (stereo not given)
[B] Cc1cc(CC(CC(=O)N2CCC(N3Cc4ccccc4NC3=O)CC2)c2ccccn2)cc2cn[nH]c12 (stereo not given)
[C] Cc1ccc(C(CC(=O)N2CCC(N3Cc4ccccc4NC3=O)CC2)Cc2cc(C)c3[nH]ncc3c2)nc1 (stereo not given)
[D] Cc1cc(CC(OC(=O)N2CCC(c3cc4ccccc4[nH]c3=O)CC2)c2cc(C(=O)N(C)C)cc(Cl)n2)cc2cn[nH]c12 (stereo not given)
query: Sort these compounds on bioavailability so the largest reading comes first. Submit the labels in the order that the ranking request calls for.
result: D, B, A, C
(D: 4.5%, B: 3%, A: 2%, C: 1%)
